These measurements were taken from ChEMBL document CHEMBL1201862.

# System: RPMI-8226
# Test: NCI tumour cell line growth inhibition, 48 h
Calls of active or inactive are those of the source. Cut-off read from the data, not from the text of the source: active = GI50 up to about 1.1 µM and inactive = higher.
GI50 values for the compounds below.
Quantity Kind: GI50

{"Compound": "CC1(C)CC(=O)C(C(=O)Nc2cccs2)=C(O)C1", "Measurement Target": "RPMI-8226", "Result": "31 µM (inactive)"}
{"Compound": "CN1C(=O)[C@@H]2N(CSC2(C)C)C1=S", "Measurement Target": "RPMI-8226", "Result": "> 100 µM (inactive)"}
{"Compound": "COc1ccc(C(C#N)NNC(=O)c2ccccc2O)cc1OC (stereo unspecified)", "Measurement Target": "RPMI-8226", "Result": "4.24 µM (inactive)"}
{"Compound": "Cc1cc2c(=O)c3ccccc3oc2c(C#N)c1C", "Measurement Target": "RPMI-8226", "Result": "> 100 µM (inactive)"}
{"Compound": "CCCC[C@H]1CCN2C[C@@H](O)[C@@H](O)[C@H]2[C@@H]1O", "Measurement Target": "RPMI-8226", "Result": "> 100 µM (inactive)"}
{"Compound": "COC1OC2COC(c3ccccc3)OC2C(OC(=S)c2ccccc2)C1O (stereo unspecified)", "Measurement Target": "RPMI-8226", "Result": "13.9 µM (inactive)"}
{"Compound": "CC(=O)OC1CC2C(C)(C)C(=O)C=C[C@]2(C)C2CCC3(C)C(c4ccoc4)[C@@H](O)[C@H]4O[C@]43[C@]12C (stereo partly specified)", "Measurement Target": "RPMI-8226", "Result": "18.4 µM (inactive)"}
{"Compound": "COC(=O)C(Cc1ccc2c(c1)CCC2)Cc1ccc2c(c1)CCC2", "Measurement Target": "RPMI-8226", "Result": "26.1 µM (inactive)"}
{"Compound": "CCOC(=O)N1CCN(P(=O)(Nc2ccc3[nH]c(NC(=O)OC)nc3c2)Oc2ccccc2)CC1 (stereo unspecified)", "Measurement Target": "RPMI-8226", "Result": "81.8 µM (inactive)"}
{"Compound": "C=CCc1cc(-c2cc(CC=C)c(O)c(CNCCCl)c2)cc(CNCCCl)c1O", "Measurement Target": "RPMI-8226", "Result": "21.4 µM (inactive)"}
{"Compound": "CC(=O)O[C@H]1CCC2[C@@H]3CCC4Nc5[nH]ncc5C[C@]4(C)C3CC[C@@]21C (stereo partly specified)", "Measurement Target": "RPMI-8226", "Result": "31.9 µM (inactive)"}
{"Compound": "CN1C(=O)C(=CN)C(=O)N(C)C1=O", "Measurement Target": "RPMI-8226", "Result": "> 100 µM (inactive)"}
{"Compound": "S=C(/N=C1/NCC(CN2CCN(c3ccccc3)CC2)O1)Nc1ccccc1 (stereo unspecified)", "Measurement Target": "RPMI-8226", "Result": "42.3 µM (inactive)"}
{"Compound": "C[C@]12CCC(=O)C=C1CC[C@@H]1[C@@H]2C(=O)C[C@@]2(C)[C@H]1CC[C@]2(O)C(=O)CO", "Measurement Target": "RPMI-8226", "Result": "> 100 µM (inactive)"}
{"Compound": "COc1cccc(Nc2nc(C)c([N+](=O)[O-])c(Nc3cccc(OC)c3)n2)c1", "Measurement Target": "RPMI-8226", "Result": "5.06 µM (inactive)"}
{"Compound": "Cc1cccc2[s+]snc12", "Measurement Target": "RPMI-8226", "Result": "> 42.4 µM (inactive)"}
{"Compound": "CC(C)N(C(=O)C12C3C4C5C3C1(C(=O)N(C(C)C)C(C)C)C5C42)C(C)C (stereo unspecified)", "Measurement Target": "RPMI-8226", "Result": "> 44.7 µM (inactive)"}
{"Compound": "COc1cc(COC(=O)N(C)[C@@H](Cc2ccccc2)C(=O)O)c([N+](=O)[O-])cc1OC", "Measurement Target": "RPMI-8226", "Result": "> 100 µM (inactive)"}
{"Compound": "COCCOCOC(C)(C)[C@H](CCOC(C)=O)O[Si](c1ccccc1)(c1ccccc1)C(C)(C)C", "Measurement Target": "RPMI-8226", "Result": "3.96 µM (inactive)"}
{"Compound": "CC1=NN(c2nc(N)nc(-c3ccccc3S(N)(=O)=O)n2)C(C)(C)C1", "Measurement Target": "RPMI-8226", "Result": "27.2 µM (inactive)"}
{"Compound": "COC(=O)C(CCS(=O)(=O)CC(=O)C(=O)Nc1cccc(C(C)=O)c1)C(=O)OC", "Measurement Target": "RPMI-8226", "Result": "> 47.2 µM (inactive)"}
